- measured target: bone morphogenetic protein 2 (BMP2)
- method description: SPR; ProteOn XPR36, 25 °C; BMP/TGF-β ligands immobilized on GLC chips by amine coupling, RGM proteins as analytes; 10 mM Hepes pH 7.4, 500 mM NaCl, 3.4 mM EDTA, 0.005% Tween20; 1:1 Langmuir kinetic fit, Kd = koff/kon; apparent Kd
result type: Kd

Requested field: Kd. Item: soluble RGMB extracellular domain (RGMBECD) for the ProteOn SPR studies (from UniProt Q6NW40 46-413) (domain or fragment) 4.2 nM
